The origin of these recorded values is ChEMBL document CHEMBL1127679.

# target system: Nucleic Acid
# method summary: Relative affinity for DNA binding
// reported IC50 for each item listed

compound structure: NCCNc1ccc2c(CNCCCO)nn3c4cccc(O)c4c(=O)c1c23
target system: Nucleic Acid
IC50 / nM: 140

compound structure: NCCNc1ccc2c(CNCCO)nn3c4cccc(O)c4c(=O)c1c23
target system: Nucleic Acid
IC50 / nM: 140

compound structure: CCNCc1nn2c3cccc(O)c3c(=O)c3c(NCCN(C)C)ccc1c32
target system: Nucleic Acid
IC50 / nM: 110

compound structure: NCCCNc1ccc2c(CNCCO)nn3c4cccc(O)c4c(=O)c1c23
target system: Nucleic Acid
IC50 / nM: 130

compound structure: O=c1c2c(O)cccc2n2nc(CNCCO)c3ccc(NCCNCCO)c1c32
target system: Nucleic Acid
IC50 / nM: 140

compound structure: O=c1c2c(O)cccc2n2nc(CNCCO)c3ccc(NCCCO)c1c32
target system: Nucleic Acid
IC50 / nM: 1050

compound structure: COc1cccc2c1c(=O)c1c(NCCN)ccc3c(CNCCN)nn2c31
target system: Nucleic Acid
IC50 / nM: 180

compound structure: NCCNCc1nn2c3cccc(O)c3c(=O)c3c(NCCN)ccc1c32
target system: Nucleic Acid
IC50 / nM: 170

compound structure: COc1cccc2c1c(=O)c1c(NCCN(C)C)ccc3c(CNCCN(C)C)nn2c31
target system: Nucleic Acid
IC50 / nM: 160

compound structure: NCCNc1ccc2c(CNCCCCO)nn3c4cccc(O)c4c(=O)c1c23
target system: Nucleic Acid
IC50 / nM: 170

compound structure: NCCCCNc1ccc2c(CNCCO)nn3c4cccc(O)c4c(=O)c1c23
target system: Nucleic Acid
IC50 / nM: 190

----------
# target system: Nucleic Acid
# method summary: Relative affinity for DNA binding
pIC50: −log10 of the molar value.

compound structure: NCCNCc1nn2c3ccccc3c(=O)c3c(NCCN)ccc1c32
pIC50: 6.89

compound structure: CN(C)CCNc1ccc2c(CNCCO)nn3c4cccc(O)c4c(=O)c1c23
pIC50: 6.74

compound structure: CN(C)CCNCc1nn2c3ccccc3c(=O)c3c(NCCN(C)C)ccc1c32
pIC50: 6.59

compound structure: CN(C)CCNCc1nn2c3cccc(O)c3c(=O)c3c(NCCN(C)C)ccc1c32
pIC50: 6.80

compound structure: NCCCNc1ccc2c(CN3CCOCC3)nn3c4cccc(O)c4c(=O)c1c23
pIC50: 6.05

compound structure: CN(C)CCNc1ccc2c(CN(CCO)CCO)nn3c4cccc(O)c4c(=O)c1c23
pIC50: 6.38
